Taken from ChEMBL document CHEMBL2046370.

System: Salmonella typhimurium
Test: Antibacterial activity against Salmonella typhimurium ATCC 14028 after 24 hrs
Assay type: functional, Salmonella enterica subsp. enterica serovar Typhimurium
Details: Salmonella enterica, ATCC 14028, 24 h
Kindly supply the reported MIC values for the records listed here.
Give bare numbers, in µg/mL.

Example results:
| compound | MIC (µg/mL) |
| --- | --- |
| O=C(c1ccc(O)c(Br)c1)c1nccc2c1[nH]c1ccc(Br)cc12 [EUDISTOMIN Y4] | 0.39 |
| Oc1c(Br)cc(C(O)c2nccc3c2[nH]c2ccc(Br)cc23)cc1Br (stereo not drawn) [EUDISTOMIN Y11] | 3.12 |
| O=C(c1cc(Br)c(O)c(Br)c1)c1nccc2c1[nH]c1ccc(Br)cc12 [EUDISTOMIN Y6] | 0.39 |
| O=C(c1ccc(O)c(Br)c1)c1nccc2c1[nH]c1ccccc12 [EUDISTOMIN Y3] | 6.25 |

Here's the next entry for you.
# input Look up MIC for this compound: O=C(c1ccc(O)cc1)c1nccc2c1[nH]c1ccc(Br)cc12 [EUDISTOMIN Y2]
# output 50

----------
Target: Isocitrate lyase (Candida albicans)
Sequence (Q9P8Q7 whole entry): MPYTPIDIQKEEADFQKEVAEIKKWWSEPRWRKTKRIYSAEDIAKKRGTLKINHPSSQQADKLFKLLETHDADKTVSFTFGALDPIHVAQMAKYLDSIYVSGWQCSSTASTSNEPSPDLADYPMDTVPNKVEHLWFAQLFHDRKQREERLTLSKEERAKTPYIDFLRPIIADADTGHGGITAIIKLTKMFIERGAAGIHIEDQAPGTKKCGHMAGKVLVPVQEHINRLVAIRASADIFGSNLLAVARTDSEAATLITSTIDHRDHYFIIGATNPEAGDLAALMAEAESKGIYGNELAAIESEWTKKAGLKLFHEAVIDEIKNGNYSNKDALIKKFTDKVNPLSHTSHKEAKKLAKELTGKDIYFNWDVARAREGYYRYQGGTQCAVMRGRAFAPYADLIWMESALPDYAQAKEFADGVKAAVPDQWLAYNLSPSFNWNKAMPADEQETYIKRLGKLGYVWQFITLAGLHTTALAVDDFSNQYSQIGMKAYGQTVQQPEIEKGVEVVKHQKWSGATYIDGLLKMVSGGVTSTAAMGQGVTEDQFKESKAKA
Test: Inhibition of Candida albicans recombinant ICL assessed as formation of glyoxylate phenylhydrazone by spectrophotometry
reportedEndpoint: IC50 (µM)
Answers are plain numbers, in µM.

| compound | IC50 / µM |
| --- | --- |
| O=C(O)CC[N+](=O)[O-] | 38.6 |
| Oc1ccc(C(O)c2nccc3c2[nH]c2ccccc23)cc1 (configuration not stated) [EUDISTOMIN Y8] | 68.9 |
| O=C(c1ccc(O)cc1)c1nccc2c1[nH]c1ccccc12 [EUDISTOMIN Y1] | 48.2 |

# input So what's the measured IC50 for this one? O=C(c1ccc(O)cc1)c1nccc2c1[nH]c1ccc(Br)cc12 [EUDISTOMIN Y2]
# output 50.2

----------
Test system: Candida albicans
Experiment: Antifungal activity against Candida albicans ATCC 10231 after 48 to 72 hrs
Format: functional
Give measured MIC for each item. Keep answers brief.

Take each entry in turn and give its MIC.
1. O=C(c1ccc(O)cc1)c1nccc2c1[nH]c1ccccc12 [EUDISTOMIN Y1]
2. Oc1c(Br)cc(C(O)c2nccc3c2[nH]c2ccccc23)cc1Br (centres undefined) [EUDISTOMIN Y10]

# output
1. 50 µg/mL
2. > 100 µg/mL

Please give MIC, item by item, for the list that follows.
1. Oc1ccc(C(O)c2nccc3c2[nH]c2ccc(Br)cc23)cc1Br (centres undefined) [EUDISTOMIN Y9]
2. C[C@@H]1[C@H](O)[C@@H](C)/C=C/C=C/C=C/C=C/C=C/C=C/C=C/[C@H](O[C@@H]2O[C@H](C)[C@@H](O)[C@H](N)[C@@H]2O)C[C@@H]2O[C@](O)(C[C@@H](O)C[C@@H](O)[C@H](O)CC[C@@H](O)C[C@@H](O)CC(=O)O[C@H]1C)C[C@H](O)[C@H]2C(=O)O [AMPHOTERICIN B]
3. O=C(c1ccc(O)c(Br)c1)c1nccc2c1[nH]c1ccc(Br)cc12 [EUDISTOMIN Y4]
4. O=C(c1ccc(O)cc1)c1nccc2c1[nH]c1ccc(Br)cc12 [EUDISTOMIN Y2]
5. O=C(c1ccc(O)c(Br)c1)c1nccc2c1[nH]c1ccccc12 [EUDISTOMIN Y3]
6. Oc1c(Br)cc(C(O)c2nccc3c2[nH]c2ccc(Br)cc23)cc1Br (centres undefined) [EUDISTOMIN Y11]
7. Cc1ccc(S(=O)(=O)Oc2ccc(C(O)c3nccc4c3[nH]c3ccc(Br)cc34)cc2Br)cc1 (centres undefined) [EUDISTOMIN Y12]

# output
1. > 100 µg/mL
2. 0.39 µg/mL
3. > 100 µg/mL
4. 6.25 µg/mL
5. > 100 µg/mL
6. > 100 µg/mL
7. > 100 µg/mL

Hi! Can you tell me MIC for each of these molecules?
1. O=C(c1cc(Br)c(O)c(Br)c1)c1nccc2c1[nH]c1ccccc12 [EUDISTOMIN Y5]
2. O=C(c1cc(Br)c(O)c(Br)c1)c1nccc2c1[nH]c1cc(Br)ccc12 [EUDISTOMIN Y7]
3. Oc1ccc(C(O)c2nccc3c2[nH]c2ccccc23)cc1 (centres undefined) [EUDISTOMIN Y8]
4. OC(c1ccccc1)c1nccc2c1[nH]c1ccc(Br)cc12 (centres undefined) [EUDISTOMIN Y13]
5. O=C(c1cc(Br)c(O)c(Br)c1)c1nccc2c1[nH]c1ccc(Br)cc12 [EUDISTOMIN Y6]

# output
1: > 100 µg/mL; 2: > 100 µg/mL; 3: > 100 µg/mL; 4: > 100 µg/mL; 5: > 100 µg/mL

----------
Molecular target: Sortase A (Staphylococcus aureus)
Sequence (Q9S446 whole entry): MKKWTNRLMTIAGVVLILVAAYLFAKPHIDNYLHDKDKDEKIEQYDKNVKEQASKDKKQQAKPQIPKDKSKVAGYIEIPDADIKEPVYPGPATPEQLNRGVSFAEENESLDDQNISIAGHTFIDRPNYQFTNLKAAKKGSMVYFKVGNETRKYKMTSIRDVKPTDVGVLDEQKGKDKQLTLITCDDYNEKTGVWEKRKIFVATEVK
Assay: Inhibition of Staphylococcus aureus ATCC 6538p recombinant SrtA
reportedEndpoint: IC50

Past entries and their recorded results:
| compound | targetDesc | reportedEndpoint | readoutValue |
| --- | --- | --- | --- |
| O=C(c1ccc(O)cc1)c1nccc2c1[nH]c1ccc(Br)cc12 [EUDISTOMIN Y2] | Sortase A (Staphylococcus aureus) | IC50 | > 272 µM |
| O=C(c1ccc(O)c(Br)c1)c1nccc2c1[nH]c1ccccc12 [EUDISTOMIN Y3] | Sortase A (Staphylococcus aureus) | IC50 | > 272 µM |
| Oc1c(Br)cc(C(O)c2nccc3c2[nH]c2ccc(Br)cc23)cc1Br (centres undefined) [EUDISTOMIN Y11] | Sortase A (Staphylococcus aureus) | IC50 | > 190 µM |

Answer for every listed entry: what is its IC50? The entries follow.
1. Oc1ccc(C(O)c2nccc3c2[nH]c2ccc(Br)cc23)cc1Br (centres undefined) [EUDISTOMIN Y9]
2. O=C(c1ccc(O)c(Br)c1)c1nccc2c1[nH]c1ccc(Br)cc12 [EUDISTOMIN Y4]
3. O=C(c1ccc(O)cc1)c1nccc2c1[nH]c1ccccc12 [EUDISTOMIN Y1]
4. Oc1c(Br)cc(C(O)c2nccc3c2[nH]c2ccccc23)cc1Br (centres undefined) [EUDISTOMIN Y10]

# output
["> 223 µM", "163 µM", "> 347 µM", "> 223 µM"]

Could I get IC50 for every one of these entries?
1. O=C(c1cc(Br)c(O)c(Br)c1)c1nccc2c1[nH]c1ccc(Br)cc12 [EUDISTOMIN Y6]
2. O=C(c1cc(Br)c(O)c(Br)c1)c1nccc2c1[nH]c1ccccc12 [EUDISTOMIN Y5]

# output
["> 190 µM", "146 µM"]

----------
Tested on: Salmonella typhimurium
Experiment: Antibacterial activity against Salmonella typhimurium ATCC 14028 after 24 hrs
Assay type: functional, Salmonella enterica subsp. enterica serovar Typhimurium
Conditions: Salmonella enterica, ATCC 14028, 24 h
reportedEndpoint: MIC

Consider the reported MIC for these compounds:
| compound | readoutValue |
| --- | --- |
| O=C(c1cc(Br)c(O)c(Br)c1)c1nccc2c1[nH]c1ccccc12 [EUDISTOMIN Y5] | 0.78 µg/mL |
| O=C(c1ccc(O)cc1)c1nccc2c1[nH]c1ccccc12 [EUDISTOMIN Y1] | > 100 µg/mL |
| O=C(c1cc(Br)c(O)c(Br)c1)c1nccc2c1[nH]c1cc(Br)ccc12 [EUDISTOMIN Y7] | 0.78 µg/mL |
| Oc1c(Br)cc(C(O)c2nccc3c2[nH]c2ccccc23)cc1Br (stereo unspecified) [EUDISTOMIN Y10] | 12.5 µg/mL |
| CC1(C)S[C@@H]2[C@H](NC(=O)[C@H](N)c3ccccc3)C(=O)N2[C@H]1C(=O)O [AMPICILLIN] | 0.78 µg/mL |

// switching to the query compound
# input Name the recorded MIC for OC(c1ccccc1)c1nccc2c1[nH]c1ccc(Br)cc12 (stereo unspecified) [EUDISTOMIN Y13] .
# output > 100 µg/mL

----------
System: Staphylococcus aureus
Experiment: Antibacterial activity against Staphylococcus aureus ATCC 6538p after 24 hrs
Assay type: functional
For each of the compounds below, state its MIC.
Give bare numbers, in µg/mL.

In the examples that follow, each entry is paired with its recorded MIC.
| compound | targetDesc | readoutUnit | MIC |
| --- | --- | --- | --- |
| O=C(c1ccc(O)c(Br)c1)c1nccc2c1[nH]c1ccc(Br)cc12 [EUDISTOMIN Y4] | Staphylococcus aureus | µg/mL | 3.12 |
| O=C(c1cc(Br)c(O)c(Br)c1)c1nccc2c1[nH]c1ccccc12 [EUDISTOMIN Y5] | Staphylococcus aureus | µg/mL | 6.25 |
| O=C(c1cc(Br)c(O)c(Br)c1)c1nccc2c1[nH]c1ccc(Br)cc12 [EUDISTOMIN Y6] | Staphylococcus aureus | µg/mL | 1.56 |
| Oc1ccc(C(O)c2nccc3c2[nH]c2ccc(Br)cc23)cc1Br (stereo not given) [EUDISTOMIN Y9] | Staphylococcus aureus | µg/mL | 6.25 |
| O=C(c1ccc(O)cc1)c1nccc2c1[nH]c1ccc(Br)cc12 [EUDISTOMIN Y2] | Staphylococcus aureus | µg/mL | 50 |

# per-item lookup of MIC; items listed below
1. O=C(c1cc(Br)c(O)c(Br)c1)c1nccc2c1[nH]c1cc(Br)ccc12 [EUDISTOMIN Y7]
2. Oc1c(Br)cc(C(O)c2nccc3c2[nH]c2ccc(Br)cc23)cc1Br (stereo not given) [EUDISTOMIN Y11]
3. Oc1ccc(C(O)c2nccc3c2[nH]c2ccccc23)cc1 (stereo not given) [EUDISTOMIN Y8]

# output
1. 3.12
2. 6.25
3. 100
